# Test target: cGMP-inhibited 3',5'-cyclic phosphodiesterase 3A (Homo sapiens); also: assay procedure not described here
# Sequence (Q14432 whole entry): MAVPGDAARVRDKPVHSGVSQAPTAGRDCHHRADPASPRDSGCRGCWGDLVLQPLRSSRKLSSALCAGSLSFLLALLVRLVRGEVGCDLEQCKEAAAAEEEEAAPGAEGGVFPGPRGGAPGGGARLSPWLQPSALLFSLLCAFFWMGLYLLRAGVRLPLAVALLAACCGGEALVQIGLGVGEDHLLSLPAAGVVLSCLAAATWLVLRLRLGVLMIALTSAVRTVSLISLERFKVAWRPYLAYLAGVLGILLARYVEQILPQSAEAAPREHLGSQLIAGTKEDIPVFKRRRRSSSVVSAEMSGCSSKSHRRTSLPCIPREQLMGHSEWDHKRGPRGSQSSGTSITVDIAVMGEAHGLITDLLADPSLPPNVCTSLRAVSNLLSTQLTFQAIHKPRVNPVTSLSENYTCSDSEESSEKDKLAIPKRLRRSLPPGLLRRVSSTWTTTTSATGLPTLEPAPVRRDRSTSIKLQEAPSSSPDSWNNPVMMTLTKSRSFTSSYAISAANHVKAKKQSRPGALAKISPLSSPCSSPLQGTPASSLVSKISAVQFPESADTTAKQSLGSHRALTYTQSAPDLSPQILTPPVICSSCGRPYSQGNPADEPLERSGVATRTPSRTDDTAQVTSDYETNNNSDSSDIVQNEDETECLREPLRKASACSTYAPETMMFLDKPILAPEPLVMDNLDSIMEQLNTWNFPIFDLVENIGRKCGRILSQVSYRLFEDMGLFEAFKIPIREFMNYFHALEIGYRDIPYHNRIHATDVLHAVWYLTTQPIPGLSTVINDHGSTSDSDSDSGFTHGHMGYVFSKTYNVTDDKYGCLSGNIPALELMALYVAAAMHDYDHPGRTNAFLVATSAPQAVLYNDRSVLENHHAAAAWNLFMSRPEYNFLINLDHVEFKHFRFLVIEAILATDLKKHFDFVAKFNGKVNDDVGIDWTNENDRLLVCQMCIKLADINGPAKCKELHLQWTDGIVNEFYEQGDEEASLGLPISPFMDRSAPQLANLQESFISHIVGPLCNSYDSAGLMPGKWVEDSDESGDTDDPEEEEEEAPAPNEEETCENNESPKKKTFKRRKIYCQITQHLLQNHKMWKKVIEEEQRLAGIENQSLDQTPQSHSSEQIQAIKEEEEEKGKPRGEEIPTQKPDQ
# Assay type: functional
Experimental endpoint: AC50

Query string: Check the records and state AC50 for "C[C@]12C/C(=C/O)C(=O)C[C@@H]1CC[C@@H]1[C@@H]2CC[C@@]2(C)[C@H]1CC[C@]2(C)O"
Result string: > 30 µM

Query string: Check the records and state AC50 for "CC(C)(O/N=C(\C(=O)N[C@@H]1C(=O)N2C(C(=O)[O-])=C(C[n+]3ccccc3)CS[C@H]12)c1csc(N)n1)C(=O)O"
Result string: > 300 µM

Query string: Check the records and state AC50 for "COc1ccc(CN2CCN(C(c3ccc(F)cc3)c3ccc(F)cc3)CC2)c(OC)c1OC"
Result string: > 30 µM

Query string: Check the records and state AC50 for CC[C@@H](CO)NC(=O)[C@@H]1C=C2c3cccc4c3c(cn4C)C[C@H]2N(C)C1 [METHYSERGIDE]
Result string: > 30 µM

Query string: Check the records and state AC50 for "O=C(CCCN1CCC(O)(c2ccc(Br)cc2)CC1)c1ccc(F)cc1"
Result string: > 30 µM

Query string: Check the records and state AC50 for "CC(C)c1cccc(C(C)C)c1O"
Result string: > 30 µM

Query string: Check the records and state AC50 for O=c1[nH]c2ccccc2n1CCCN1CCN(C(c2ccccc2)c2ccccc2)CC1 [OXATOMIDE]
Result string: > 30 µM

Query string: Check the records and state AC50 for "CN(C)C/C=C/C(=O)Nc1cc2c(Nc3ccc(F)c(Cl)c3)ncnc2cc1O[C@H]1CCOC1"
Result string: > 30 µM

Query string: Check the records and state AC50 for "Cn1cc(C(=O)[C@@H]2CCc3nc[nH]c3C2)c2ccccc21"
Result string: > 30 µM

Query string: Check the records and state AC50 for "CC(C)N(CCCCOCC(=O)O)c1cnc(-c2ccccc2)c(-c2ccccc2)n1"
Result string: > 30 µM

Query string: Check the records and state AC50 for "CCOC(=O)c1c(CSc2ccccc2)n(C)c2cc(Br)c(O)c(CN(C)C)c12"
Result string: > 30 µM

Query string: Check the records and state AC50 for CN(CCOc1ccc(CC2SC(=O)NC2=O)cc1)c1ccccn1 (stereo not drawn)
Result string: > 30 µM

Query string: Check the records and state AC50 for "CCCCOc1ccc(C(=O)CCN2CCCCC2)cc1"
Result string: > 10 µM

Query string: Check the records and state AC50 for "CC(C)Cc1ccc([C@H](C)C(=O)O)cc1"
Result string: > 30 µM

Query string: Check the records and state AC50 for "COc1cc(C)c(/C=C/C(C)=C/C=C/C(C)=C/C(=O)O)c(C)c1C"
Result string: > 10 µM

Query string: Check the records and state AC50 for "COc1ccc(C2C(=O)c3ccccc3C2=O)cc1"
Result string: > 30 µM

Query string: Check the records and state AC50 for "C[C@]12C=CC(=O)C=C1CC[C@@H]1[C@@H]2CC[C@]2(C)OC(=O)CC[C@@H]12"
Result string: > 30 µM

Query string: Check the records and state AC50 for "OC[C@H]1O[C@@H](n2cnc3c2NC=NC[C@H]3O)C[C@@H]1O"
Result string: > 30 µM
